# STUDY TARGET: T1, GIP receptor, P48546
# T1 chain: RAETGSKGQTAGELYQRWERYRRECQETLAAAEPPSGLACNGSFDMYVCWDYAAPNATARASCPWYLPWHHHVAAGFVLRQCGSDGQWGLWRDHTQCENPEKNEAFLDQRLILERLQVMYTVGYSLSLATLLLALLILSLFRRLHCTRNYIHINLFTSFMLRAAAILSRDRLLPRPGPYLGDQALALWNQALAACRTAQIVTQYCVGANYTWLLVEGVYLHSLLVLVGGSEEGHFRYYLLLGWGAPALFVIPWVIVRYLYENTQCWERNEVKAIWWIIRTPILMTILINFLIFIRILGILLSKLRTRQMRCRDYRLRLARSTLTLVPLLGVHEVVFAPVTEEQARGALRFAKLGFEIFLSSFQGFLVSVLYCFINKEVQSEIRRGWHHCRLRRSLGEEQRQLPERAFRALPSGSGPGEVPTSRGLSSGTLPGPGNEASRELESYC
# ASSAY INFO: cell-based or functional assay
pEC50: −log10 of the molar value. Non-standard residues stand in square brackets, D forms with d. No end group written: not given here. *: point of attachment. Myristoyl = CCCCCCCCCCCCCC(=O)*; Aib = CC(C)(N)C(=O)O
OBSERVATION TYPE: pEC50

binder="H[Aib]QGTFTSDYSKYLDEQAAKEFIC(PEG 40 kDa)WLMNGGPSSGAPPPSK(Myristoyl)-NH2 [mt-349]" measured_result=8.70
